The measurements presented in this section are drawn from the supplement of paper PMC8728848.

Listed next: entries and their corresponding glycan array binding signal (z-score).
target: Man(a1-6)Man; test: glycan array binding signal (z-score within array); higher = stronger binding; settings: glycan notation: IUPAC condensed, linker removed
Shown is part of a subset that was picked to be rich in the strongest signals.
Give the figure only, with no unit attached.

Check out these entries, answers already filled in.
Recorded glycan array binding signal (z-score) of KISKRILTGKK [NK11 (Sus scrofa)] , please. -0.205

Recorded glycan array binding signal (z-score) of GS13455A-bfa-343-25-343 (Bacteroides fragilis) (protein) KDEIQIVDQDTSWQMDNKYIEEDIREQLGIDPFTDLVYLGYYGNPYTQLEAINDLVNTTLVGKNELSFKVKVTKPYKEDIKVNLMKEDKLVTDFPEMAEGIPLFPSENCTFEGGVLKAGELETTVKLTLKDVEKLNNLSGYVMAIKLTMEGSHEHLAIARTRSSYFVKLNLSIRLDNIDSSNKKIEGKGFNKEISFKSDIRPDKLGSLNDGNFTANNWYTSNANNYLTIILPEKQSLKGFRLDTNTSPSGSYMLKSCRVMVETPDGNWVNHGVFDRKSMDGIAYISFKKPVECTKVRFENMMAFNGRFSVDVNEVTAFR , please. 0.205

Recorded glycan array binding signal (z-score) of Si Bti9 1b-V5-his (Solanum lycopersicum) (protein) MQCNRGCDLALASFYVWRGSNLTLISEMFSTSIADIVSYNNRDNIPNQDSVIAGTRINIPFRCDCLNDGEVLGHAFPYRVKSGDTYDLVARNYSDLTTAQWMMKFNSYPENNIPNTVNLSVVVNCSCGNSDVSKDFGLFVTYPVRAEDNLTSVASAANVSEDIIRRYNPAAVSILDIGQGIIYIPGRDRNGNFPPLPTSTDGLSGGAKKGGRADPAFLYKVVINSKLEGKPIPNPLLGLDSTRTGHHHHHH , please. 5.02

Please turn your attention to the following entry.
Recorded glycan array binding signal (z-score) of Gal 12 (Homo sapiens), Q96DT0 (protein) MSQPSGGRAPGTRIYSWSCPTVMSPGEKLDPIPDSFILQPPVFHPVVPYVTTIFGGLHAGKMVMLQGVVPLDAHRFQVDFQCGCSLCPRPDIAFHFNPRFHTTKPHVICNTLHGGRWQREARWPHLALRRGSSFLILFLFGNEEVKVSVNGQHFLHFRYRLPLSHVDTLGIFGDILVEAVGFLNINPFVEGSREYPAGHPFLLMSPRLEVPCSHALPQGLSPGQVIIVRGLVLQEPKHFTVSLRDQAAHAPVTLRASFADRTLAWISRWGQKKLISAPFLFYPQRFFEVLLLFQEGGLKLALNGQGLGATSMNQQALEQLRELRISGSVQLYCVHS , please. -0.442
